- Test system: c-Src
- EXPERIMENT DESCRIPTION: phosphorylation enrichment, bacterial display (enrichment ratio); higher = better substrate or ligand; peptides without Tyr show the background;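 note: 11-residue human phosphosite peptides and single-mutation variants displayed on the E. coli surface, counted by deep sequencing, each peptide's frequency after selection divided by its frequency in the unselected input library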;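 note: frequency after pTyr selection over input frequency; kinase dosed for 20-30% of maximal phosphorylation in three min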
List of phosphorylation enrichment values.
Just the number.

RECORD SEQUENCE: DMLTLYVNTAA [SMCHD1_Y403_Q400L]
phosphorylation enrichment: 0.524

Tell me the measured phosphorylation enrichment of TGSFTCEAVEL [MTMR14_Y462_Y462C] , please. 0.483

Tell me the measured phosphorylation enrichment of LSERGYSFVTT [ACTA2_Y200_T196S] , please. 0.693

---

- TARGET ENTITY: Hck (UniProt P08631)
- Sequence (P08631 whole entry, looked up): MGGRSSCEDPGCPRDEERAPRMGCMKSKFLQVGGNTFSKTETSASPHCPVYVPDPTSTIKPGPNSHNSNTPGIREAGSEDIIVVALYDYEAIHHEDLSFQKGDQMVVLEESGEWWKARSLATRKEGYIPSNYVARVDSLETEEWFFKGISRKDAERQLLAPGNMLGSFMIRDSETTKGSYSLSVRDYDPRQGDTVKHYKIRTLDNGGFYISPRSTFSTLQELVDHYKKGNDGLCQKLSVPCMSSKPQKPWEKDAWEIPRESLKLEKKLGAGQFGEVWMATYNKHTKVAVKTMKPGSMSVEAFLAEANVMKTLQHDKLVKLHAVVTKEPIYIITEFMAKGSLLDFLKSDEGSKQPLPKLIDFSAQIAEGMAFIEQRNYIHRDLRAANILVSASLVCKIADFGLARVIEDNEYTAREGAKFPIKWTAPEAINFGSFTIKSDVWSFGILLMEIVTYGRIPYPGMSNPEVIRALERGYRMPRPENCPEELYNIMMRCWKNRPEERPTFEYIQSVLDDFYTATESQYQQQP
- EXPERIMENT DESCRIPTION: phosphorylation enrichment, bacterial display (enrichment ratio); higher = better substrate or ligand; peptides without Tyr show the background
List of phosphorylation enrichment values.
Just the number.

Known phosphorylation enrichment results, listed for orientation:
RECORD SEQUENCE: GGTTMYPGIAD [ACTC1_Y308]
TARGET ENTITY: Hck (UniProt P08631)
REPORTED VALUE: 0.437
//
RECORD SEQUENCE: ARGMEYLASQK [FGFR2_Y616]
TARGET ENTITY: Hck (UniProt P08631)
REPORTED VALUE: 0.385
//
RECORD SEQUENCE: DFPGNYSGFDD [POLR1C_Y33_YF]
TARGET ENTITY: Hck (UniProt P08631)
REPORTED VALUE: 0.481

Tell me the measured phosphorylation enrichment of PQQLWYTHKKK [UBTF_Y207_E210K] , please. 0.821

Tell me the measured phosphorylation enrichment of TLPAFYMGNFS [GLB1_Y552] , please. 0.565

Tell me the measured phosphorylation enrichment of LAARYYNWVCF [FLT4_Y1231_S1235C] , please. 0.588

Tell me the measured phosphorylation enrichment of FRARAYGFRGP [CHGA_Y381] , please. 0.569

---

- System: AncSZ
- EXPERIMENT DESCRIPTION: phosphorylation enrichment, bacterial display (enrichment ratio); higher = better substrate or ligand; peptides without Tyr show the background
TEST READOUT: phosphorylation enrichment
Just the number.

RECORD SEQUENCE: TLLAFYMGNFS [GLB1_Y552_P549L]
TARGET ENTITY: AncSZ
TEST READOUT: phosphorylation enrichment
REPORTED VALUE: 1.18
--
RECORD SEQUENCE: TVEDHDYEGGI [TKT_Y563_Y563D]
TARGET ENTITY: AncSZ
TEST READOUT: phosphorylation enrichment
REPORTED VALUE: 1.08
--
RECORD SEQUENCE: HPFHVYPQPGM [BAG3_Y114]
TARGET ENTITY: AncSZ
TEST READOUT: phosphorylation enrichment
REPORTED VALUE: 0.873

// fetch AncSZ phosphorylation enrichment for HELFVYKSDEN [DOCK3_Y548_C550S_YF] 1.87

// fetch AncSZ phosphorylation enrichment for GSPPPYRRRKR [MBD1_Y403] 0.665

// fetch AncSZ phosphorylation enrichment for FGHTFYNQAIM [MCCC2_Y196_R193H] 0.715

// fetch AncSZ phosphorylation enrichment for PECEWYKNGVK [TTN_Y2112] 1.55
